# Lookup of reported inhibition at 10 µM keyed by entry
Molecular target: CYP2C9 (Homo sapiens)
Sequence (P11712 whole entry): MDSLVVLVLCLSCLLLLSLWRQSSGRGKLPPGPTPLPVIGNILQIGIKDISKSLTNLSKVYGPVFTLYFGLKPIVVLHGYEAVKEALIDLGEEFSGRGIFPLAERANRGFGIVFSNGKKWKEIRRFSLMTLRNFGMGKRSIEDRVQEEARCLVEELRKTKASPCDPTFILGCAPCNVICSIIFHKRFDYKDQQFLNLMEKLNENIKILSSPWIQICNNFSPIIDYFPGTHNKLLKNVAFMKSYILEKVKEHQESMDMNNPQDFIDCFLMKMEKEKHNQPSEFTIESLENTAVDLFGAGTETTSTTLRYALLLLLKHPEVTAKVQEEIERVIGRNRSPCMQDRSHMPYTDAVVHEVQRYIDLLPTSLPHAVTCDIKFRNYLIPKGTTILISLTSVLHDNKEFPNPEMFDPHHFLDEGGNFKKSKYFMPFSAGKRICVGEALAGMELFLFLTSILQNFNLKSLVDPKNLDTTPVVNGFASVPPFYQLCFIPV
Assay: Inhibition of CYP2C9 (unknown origin) at 10 uM relative to control
Assay type: ADME
Give your result in % as a bare value.

{"Compound": "COc1c(C(=O)Nc2ccc3c(C)nn(CCC4CCN(C)CC4)c3c2)ccc2c1C=CC(C)(C)O2", "Result type": "inhibition at 10 µM", "Measure unit": "%", "Value observed": 78.2}

Shift focus to the following entry.
# inhibition at 10 µM measured on CYP2C9 (Homo sapiens) for item CC(=O)N1CCN(c2ccc(OCC3COC(Cn4ccnc4)(c4ccc(Cl)cc4Cl)O3)cc2)CC1 (configuration not stated) = 96.8

====

Species on record: Homo sapiens
Assay: Inhibition of N-terminal HSP90 (unknown origin) at 10 uM by AlphaLISA assay
Calls of active or inactive are those of the source. The calls are words filed in the database; no cut-off is given here.
Pick one and only one: true (1) = active, false (0) = inactive

{"Given smiles": "COc1c(C(=O)Nc2ccc3c(C)nn(CCC4CCN(C)CC4)c3c2)ccc2c1C=CC(C)(C)O2", "Answer label": "false (0)"}
{"Given smiles": "CC(C)c1cc(C(=O)N2Cc3ccc(CN4CCN(C)CC4)cc3C2)c(O)cc1O", "Answer label": "true (1)"}

Q: I would be grateful if you could indicate the recorded call for CC(C)c1cc(-c2n[nH]c(=O)n2-c2ccc3c(ccn3C)c2)c(O)cc1O .
Result: true (1)

Q: I would be grateful if you could indicate the recorded call for CO[C@@H]1[C@@H](OC(N)=O)[C@@H](O)[C@H](Oc2ccc3c(O)c(NC(=O)c4ccc(O)c(CC=C(C)C)c4)c(=O)oc3c2C)OC1(C)C .
Result: false (0)

====

Test: Stability in human plasma assessed as compound remaining incubated for 120 mins
Format: ADME, cell-free
Conditions: read-out: Stability
Result type: remaining at 2 h (%)
Give your result in % as a bare value.

The molecule COc1c(C(=O)Nc2ccc3c(C)nn(CCC4CCN(C)CC4)c3c2)ccc2c1C=CC(C)(C)O2 showed remaining at 2 h equal to 100

====

Assay: MRTinfinity in Sprague-Dawley rat at 10 mg/kg, po
Format: ADME, organism-based
Settings: in vivo
Result type: MRT inf
Provide the measurement as a number trailed by its unit.

The molecule COc1c(C(=O)Nc2ccc3c(C)nn(CCC4CCN(C)CC4)c3c2)ccc2c1C=CC(C)(C)O2 showed MRT inf equal to 15 h

====

Assay: Half life in Sprague-Dawley rat at 5 mg/kg, iv
Type: ADME, organism-based
Settings: in vivo
Result type: half-life (h)
Give your result in h as a bare value.

The compound COc1c(C(=O)Nc2ccc3c(C)nn(CCC4CCN(C)CC4)c3c2)ccc2c1C=CC(C)(C)O2 showed half-life equal to 4.4

====

Experiment: Half life in Sprague-Dawley rat at 10 mg/kg, po
Format: ADME, organism-based
Details: in vivo
Result type: half-life (h)
Give your result in h as a bare value.

The molecule COc1c(C(=O)Nc2ccc3c(C)nn(CCC4CCN(C)CC4)c3c2)ccc2c1C=CC(C)(C)O2 showed half-life equal to 9.6

====

Assay: Cmax in Sprague-Dawley rat at 10 mg/kg, po
Assay type: ADME, organism-based
Conditions: in vivo
Result type: Cmax (ng/mL)
Give your result in ng/mL as a bare value.

The molecule COc1c(C(=O)Nc2ccc3c(C)nn(CCC4CCN(C)CC4)c3c2)ccc2c1C=CC(C)(C)O2 showed Cmax equal to 159
